Listing of entries alongside the reported Duration of Pain Behavior.
# Tested on: rats
# test_description: Rodent formalin pain model (Example 3)
# Format: in vivo
# conditions_used: dose 10 mg/kg IV, rat, first two minutes after formalin; vehicle 88.6
# Text: Compounds of Formula (Ia) are active in rodent models of pain induced by direct activation of the TRPA1 channel with intraplantar injection of the TRPA1 agonist formalin. […] Table 2 is a data table showing the results from testing compounds of Formula (Ia) in the rodent formalin-induced pain model described in Example 2. […] Pain behaviors (flinch, lift, lick, bite) were monitored following intraplantar formalin injection. […]
Enter your answer as a number in s; do not include the unit.

compound	units_label	Duration of Pain Behavior
C[C@@H](C(=O)Nc1cccc(-c2cnc(N3CCC[C@H]3C(F)(F)F)nc2)n1)n1cnc2c1c(=O)n(C)c(=O)n2C [Compound 1-B]	s	0.3

**Q:** Identify measured Duration of Pain Behavior associated with C[C@H]1CCCN1c1ncc(-c2cncc(NC(=O)[C@H](C)n3cnc4c3c(=O)n(C)c(=O)n4C)n2)cn1 [Compound 3-K]
**A:** 2.6

**Q:** Identify measured Duration of Pain Behavior associated with C[C@@H](C(=O)N(COP(=O)(O)O)c1cncc(-c2cnc(N3CCC[C@H]3C(F)(F)F)nc2)n1)n1cnc2c1c(=O)n(C)c(=O)n2C [Compound 5-S]
**A:** 0

**Q:** Identify measured Duration of Pain Behavior associated with C[C@H]1CCCN1c1ncc(-c2cncc(N(COP(=O)(O)O)C(=O)[C@H](C)n3cnc4c3c(=O)n(C)c(=O)n4C)n2)cn1 [Compound 3-J]
**A:** 1.6
